inhibition: recorded values
# Experimental system: Protein-glutamine gamma-glutamyltransferase (Homo sapiens)
# Method: Partial inhibition of human transglutaminase 2 using ZGBC as a substrate after 30 to 60 mins by fluorometric assay
# Set-up: concentration or dose not given beside the values

# Molecular string, Unit tag, inhibition
data = [
    ("Nc1ccc(C(=O)/C=C2/C(=O)Nc3cccc(Cl)c32)cc1", "%", 65),
    ("COc1ccncc1C(=O)/C=C1/C(=O)Nc2cccc(Cl)c21", "%", 50),
    ("O=C1Nc2c(Cl)cccc2/C1=C\\C(=O)c1cccnc1", "%", 70),
    ("O=C1Nc2cccc(Cl)c2/C1=C\\C(=O)c1ccc(Cl)cc1", "%", 60),
    ("O=C1Nc2cc(Br)ccc2/C1=C\\C(=O)c1cccnc1", "%", 65),
]
